B1: LINE1-full (parent)
chain: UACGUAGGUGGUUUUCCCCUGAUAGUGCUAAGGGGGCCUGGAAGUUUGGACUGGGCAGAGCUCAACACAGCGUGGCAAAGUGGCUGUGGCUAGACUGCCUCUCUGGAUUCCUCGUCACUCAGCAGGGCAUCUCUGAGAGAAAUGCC

variants of: B1; assay: self-cleavage, relative activity (ratio to wild type); higher = more cleavage; in vitro, sequencing; the parent is a self-cleaving ribozyme
Decide by self-cleavage: equal to or exceeding 0.8 means Satisfied, less means Not satisfied.

Example entries and their recorded answers appear below.
Variant spec	Category label
U15A G35C	Satisfied
G21A A50G	Not satisfied
A42U U52C	Not satisfied
U26A A42G	Satisfied
U47G C68U	Not satisfied
G40C C146U	Satisfied

Confirm if self-cleavage reported for the variant U100C C110A is 0.8 or above.
Satisfied

Hi, just wondering whether G48A U112A shows self-cleavage of 0.8 or higher.
Satisfied

# check: self-cleavage of U20C C111U is greater than or equal to 0.8
Satisfied

Please tell me: is the variant A92C at or over 0.8 in terms of self-cleavage?
Not satisfied

Assess whether reported self-cleavage for A57G G82A sits at 0.8 or higher.
Satisfied
